Measured viability, T/C accompanies every entry in the list below.
# System: 361931-004-R-J1-PDC multicell spheroid viability;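 also: spheroids exposed to agents for seven days before readout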
# test_description: Anticancer human tumor 361931-004-R-J1-PDC patient-derived colon adenocarcinoma cell line growth inhibition [PI3K]
# condition_parameters: second compound 0.01 µM; first compound 0.1 µM; stronger effect = lower value
property_name: viability, T/C (%)

[
  {
    "compound": "CC(C)n1nc(-c2ccc3oc(N)nc3c2)c2c(N)ncnc21 + COc1c(OCCCN2CCOCC2)ccc2c3n(c(=NC(=O)c4cnc(N)nc4)nc12)CCN3",
    "experimental_target": "361931-004-R-J1-PDC multicell spheroid viability",
    "data_value": 57.6
  },
  {
    "compound": "Cn1ncnc1[C@H]1c2n[nH]c(=O)c3cc(F)cc(c23)N[C@@H]1c1ccc(F)cc1 + COc1c(OCCCN2CCOCC2)ccc2c3n(c(=NC(=O)c4cnc(N)nc4)nc12)CCN3",
    "experimental_target": "361931-004-R-J1-PDC multicell spheroid viability",
    "data_value": 84.9
  },
  {
    "compound": "CC1(C)CCC(Nc2ncc(C(F)(F)F)c(-c3c[nH]c4c(P(C)(C)=O)c(C#N)ccc34)n2)CN1 (stereo not given) + CC(Nc1ccc2c(c1)OCCn1cc(N3C(=O)OCC3C(F)F)nc1-2)C(N)=O",
    "experimental_target": "361931-004-R-J1-PDC multicell spheroid viability",
    "data_value": 79.8
  },
  {
    "compound": "CNC(=O)c1ccc(N2C(=S)N(c3ccc(C#N)c(C(F)(F)F)c3)C(=O)C2(C)C)cc1F + COc1c(OCCCN2CCOCC2)ccc2c3n(c(=NC(=O)c4cnc(N)nc4)nc12)CCN3",
    "experimental_target": "361931-004-R-J1-PDC multicell spheroid viability",
    "data_value": 101
  },
  {
    "compound": "C=CC(=O)N1CCN(c2nc(=O)n(-c3c(C)ccnc3C(C)C)c3nc(-c4c(O)cccc4F)c(F)cc23)C(C)C1 (stereo not given) + COc1c(OCCCN2CCOCC2)ccc2c3n(c(=NC(=O)c4cnc(N)nc4)nc12)CCN3",
    "experimental_target": "361931-004-R-J1-PDC multicell spheroid viability",
    "data_value": 95
  }
]
